- tested_target: T1, His-tagged mouse CD38 (ACRO Biosystems #CD8-M5223) (mouse, UniProt P56528 45-304)
- T1 construct: bought recombinant protein with His tag; also called Murine
- T1 sequence (looked up): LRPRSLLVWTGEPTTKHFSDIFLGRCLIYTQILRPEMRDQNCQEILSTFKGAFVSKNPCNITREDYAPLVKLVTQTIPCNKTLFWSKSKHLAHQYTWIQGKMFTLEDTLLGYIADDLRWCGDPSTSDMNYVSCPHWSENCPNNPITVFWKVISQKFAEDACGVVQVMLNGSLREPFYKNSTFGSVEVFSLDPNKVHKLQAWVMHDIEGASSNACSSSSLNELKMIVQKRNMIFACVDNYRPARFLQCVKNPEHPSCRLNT
- test: SPR, captured scFv-Fc, His-CD38 analyte;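 note: SPR on a Carterra LSA, scFv-Fc captured by anti-human Fc on HC30M chip, His-tagged CD38 (human, mouse, cynomolgus) flowed as analyte in eight 1:2 steps from 400 nM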
measured_property: Kd (nM)
Please state the figure in nM; there is no need to write the unit.

Note to self: Kd recorded for 40566p1.C9 (scFv, V domains shown, tested as scFv-Fc supernatant) VH: DVQLVESGGGVVRPGESLRLSCAASGFTFDNYDMTWVRQAPGEGLEWVSFISSRGTFTYYTDSVKGRFTISRDNSKNTLYLQMNSLRAEDTAIYYCTKDSGEYYFFDYWGLGTLVTVSS VL: ETVMTQSPATLSVSPGERATFSCRASQSVNSKLAWYQQKPGQAPRLLIYDASRRATGIPDRFSGSGSGTEFTLTISSLQSEDFAVYFCQQYYDWPPLTFGGGTKVEIK was 0.351

response.value for 40566p1.B3 (scFv, V domains shown, tested as scFv-Fc supernatant) VH: DVQLVESGGGVVRPGESLRLSCAASGFTFDNYDMTWVRQAPGEGLEWVSFISSRGTFTYYTDSVRGRFTISRDNSKNTLYLEMNSLRAEDTAIYYCAKDSGEYYFFDYWGLGTLVTVSS VL: EIVMTQSPATLSVSPGERATFSCRASQSVNSKLAWYQQKPGQAPRLLIYGASRRATGIPDRFSGSGSGTEFTLTISSLQSEDFAVYYCQQYYDWPPLTFGGGTKVEIK (field: Kd) = 1.32

Sample 40617p1.2.H1 (scFv, V domains shown, tested as scFv-Fc supernatant) VH: EVQLLESGGGLVQPGGSLRLSCAASGFTFTNYWMTWVRQAPGKGLEWVSAISSYGGNYMYYADSVKGRFTISRDNSENTLYLQMNSLRAEDTAVYYCAKDWDDGMDVWGQGTTVTVSS VL: EIVMTQSPAVLSVSPGERATLSCRASQTVGSKLAWYQQKPGQAPRLLIYGVSTRAAGIPDRFSGSGSGTDFTLTISSLQSEDFAVYYCQQYYDLPPYSFGGGTKVEIK ; Kd observed: 39.4

Taken from patent US20220306762A1.
